Tested on: U2OS
Assay: Incucyte cell viability with U2OS; also: unitless GR value; below 1 slowed growth and below 0 cell loss
Assay type: toxicity, cell-based
Settings: human, 12 h, 10 µM, compound concentration 10 uM, replicate number 1
Measured Growth Rate, listed per entry for reference.

Below, each entry is followed by its recorded Growth Rate result.
>>> value("CC[C@@H](CO)Nc1nc(Nc2cccc(NC(=O)C(C)(C)C)c2)ncc1F")
0.66
>>> value("COc1ccccc1-c1cc(Nc2cccc(CS(N)(=O)=O)c2)ncn1")
0.51
>>> value("C[C@H]1CN(C2COC2)CCN1c1ccc(Nc2cc(-c3ccnc(N4CCn5c(cc6c5CC(C)(C)C6)C4=O)c3CO)cn(C)c2=O)nc1")
0.69

Could you now look at the following compound, please?
For `Cc1cccc(-c2nn3c(c2-c2ccnc4ccc(C(N)=O)cc24)CCC3)n1` , what is its reported Growth Rate?
0.66
